Origin of the recorded values: the supplement of paper PMC10724198

Reported protein stability index values for a set of sequences
- Tested on: Saccharomyces cerevisiae
- protocol details: protein stability index of tFT-peptide fusion (C-terminal peptide) (PSI (0-1 scale)); higher = more stable (slower turnover)
- measurement conditions: genetic background: wild type; temperature: 37 C
// print number alone

# example entries with known answers
- sequence code: "NAGSHHAAVKLG"
  val: 0.502
- sequence code: "HRLQFKGYPICA"
  val: 0.338
- sequence code: "PLPSRLRRFVPV"
  val: 0.68
- sequence code: "FPSCYIWEVEVM"
  val: 0.436
- sequence code: "WFIPRSVCRWLF"
  val: 0.116
- sequence code: "SRLVSRLGLYLS"
  val: 0.475
- sequence code: "VFFVLIFLLFLF"
  val: 0.469
- sequence code: "FGEDFCHLLWCC"
  val: 0.542

-- ask Can you look up the measured protein stability index of GLNKGKYIKLYT for me?
-- reply 0.641

-- ask Can you look up the measured protein stability index of LVGYSVFVLFFS for me?
-- reply 0.426

-- ask Can you look up the measured protein stability index of EFVACFRLLVHG for me?
-- reply 0.409

-- ask Can you look up the measured protein stability index of SVAGFFLLLLLS for me?
-- reply 0.338

-- ask Can you look up the measured protein stability index of WGAHRVRVSRIL for me?
-- reply 0.516

-- ask Can you look up the measured protein stability index of FLCFFGGCFFLV for me?
-- reply 0.562

====

- Tested on: Saccharomyces cerevisiae
- protocol details: protein stability index of tFT-peptide fusion (C-terminal peptide) (PSI (0-1 scale)); higher = more stable (slower turnover)
- measurement conditions: genetic background: doa10 deletion; temperature: 30 C
Each record gets a class by protein stability index: low: < 0.2; middle: ≥ 0.2 and < 0.3; high: ≥ 0.3

The following sequences have reported results that may help.
- sequence code: "EKKKKKRKNKIK"
  label value: "high"
- sequence code: "ETCFSFVCSVQC"
  label value: "middle"
- sequence code: "SVAGFFLLLLLS"
  label value: "low"
- sequence code: "PWGVGLACLFLL"
  label value: "low"
- sequence code: "CLGLFPSLLRLS"
  label value: "middle"

-- ask Into which bin does this sequence go? FFFSFSFPFLSF
-- reply high

-- ask Into which bin does this sequence go? LHASCVYTILLV
-- reply high

-- ask Into which bin does this sequence go? VFGSVAALRLLM
-- reply low

-- ask Into which bin does this sequence go? SRRSIGAYLFVS
-- reply low

-- ask Into which bin does this sequence go? RRRNQAAHLYSH
-- reply low

-- ask Into which bin does this sequence go? WVVVLFAYRGLR
-- reply high

-- ask Into which bin does this sequence go? FRFYCGLVIANV
-- reply high

-- ask Into which bin does this sequence go? WFIPRSVCRWLF
-- reply low

====

Reported protein stability index values for a set of sequences
- Tested on: Saccharomyces cerevisiae;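 note: PSI is a weighted mean of sequencing reads over stability bins, variants kept only with over 10 reads, mCherry proximal and sfGFP distal, peptide attached via GGGS linker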
- protocol details: protein stability index of tFT-peptide fusion (C-terminal peptide) (PSI (0-1 scale)); higher = more stable (slower turnover)
- measurement conditions: genetic background: cdc53-1; temperature: 37 C
// print number alone

# example entries with known answers
- sequence code: "TLDWKFGWGGIG"
  protein stability index: 0.579
- sequence code: "WFSAGSCRWVLC"
  protein stability index: 0.71
- sequence code: "LLQCRTGLASGR"
  protein stability index: 0.732
- sequence code: "LWFFVVVVVRWV"
  protein stability index: 0.135
- sequence code: "LFIRSFLFFSHF"
  protein stability index: 0.348

-- ask Can you look up the measured protein stability index of SVLRCPVILLAY for me?
-- reply 0.0232

-- ask Can you look up the measured protein stability index of VRWALLGVVVEG for me?
-- reply 0.398

-- ask Can you look up the measured protein stability index of PPVLAPHLCFPP for me?
-- reply 0.736

-- ask Can you look up the measured protein stability index of FLVVCGLLSWVW for me?
-- reply 0.407

-- ask Can you look up the measured protein stability index of VIVKSRTTLYIS for me?
-- reply 0.616
